Source: the MegaScale stability set (Tsuboyama et al. 2023)

Kindly supply the reported folding stability dG values for the records listed here.
B1: HEEH_KT_rd6_3546 (parent)
chain: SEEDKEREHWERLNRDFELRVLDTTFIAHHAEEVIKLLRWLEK

Variants of: B1
Experiment: folding stability dG (cDNA display proteolysis); higher = more stable
Settings: PBS, room temperature
The figure you give is taken to be in kcal/mol; do not add the unit.

Q: Return reported folding stability dG; argument: SFEDKEREHWERLNRDFELRVLDTTFIAHHAEEVIKLLRWLEK [E2F]
A: 1.36

Q: Return reported folding stability dG; argument: SEEDKERAHWERLNRDFELRVLDTTFIAHHAEEVIKLLRWLEK [E8A]
A: 1.4

Q: Return reported folding stability dG; argument: SEEPKEREHWERLNRDFELRVLDTTFIAHHAEEVIKLLRWLEK [D4P]
A: 1.38

Q: Return reported folding stability dG; argument: SEEDKEREHWERLNRDFELRVLDTTFCAHHAEEVIKLLRWLEK [I27C]
A: 2.33

Q: Return reported folding stability dG; argument: SEEDPEREHWERLNRDFELRVLDTTFIAHHAEEVIKLLRWLEK [K5P]
A: 1.28

Q: Return reported folding stability dG; argument: SEEDKEREHWERLNRDFELRVLDTTFIAHHAEEVMKLLRWLEK [I35M]
A: 1.33

Q: Return reported folding stability dG; argument: SEEDKFREHWERLNRDFELRVLDTTFIAHHAEEVIKLLRWLEK [E6F]
A: 1.73

Q: Return reported folding stability dG; argument: SEEDKEREHWMRLNRDFELRVLDTTFIAHHAEEVIKLLRWLEK [E11M]
A: 1.9

Q: Return reported folding stability dG; argument: SEEDKEREHWERLNRDFELRVLDTTFIAHHAEEVIKLLRWLEP [K43P]
A: 0.967

Q: Return reported folding stability dG; argument: SEEDKENEHWERLNRDFELRVLDTTFIAHHAEEVIKLLRWLEK [R7N]
A: 1.26

Q: Return reported folding stability dG; argument: SEEDKEREHWERLNRQFELRVLDTTFIAHHAEEVIKLLRWLEK [D16Q]
A: 1.6

Q: Return reported folding stability dG; argument: SEEDKEREHCERLNRDFELRVLDTTFIAHHAEEVIKLLRWLEK [W10C]
A: 1.79

Q: Return reported folding stability dG; argument: SEEDKEREHWERLNRDFPLRVLDTTFIAHHAEEVIKLLRWLEK [E18P]
A: 1.52

Q: Return reported folding stability dG; argument: SEEDKEREHWEYLNRDFELRVLDTTFIAHHAEEVIKLLRWLEK [R12Y]
A: 1.66

Q: Return reported folding stability dG; argument: SEEDKEREHLERLNRDFELRVLDTTFIAHHAEEVIKLLRWLEK [W10L]
A: 1.36

Q: Return reported folding stability dG; argument: SEEDKEREHWERLWRDFELRVLDTTFIAHHAEEVIKLLRWLEK [N14W]
A: 2.69

Q: Return reported folding stability dG; argument: SEEDKEYEHWERLNRDFELRVLDTTFIAHHAEEVIKLLRWLEK [R7Y]
A: 1.21

Q: Return reported folding stability dG; argument: SEEDKEREHWERLNRDFELRVLDTTFIAHHAEEVIKLIRWLEK [L38I]
A: 1.09

Q: Return reported folding stability dG; argument: SEEDKEREHWERLNRDFELRVLDTTFIAHHHEEVIKLLRWLEK [A31H]
A: 0.66

Q: Return reported folding stability dG; argument: SEEDKEREHWERLNRNFELRVLDTTFIAHHAEEVIKLLRWLEK [D16N]
A: 1.59

Q: Return reported folding stability dG; argument: SEEDKERSHWERLNRDFELRVLDTTFIAHHAEEVIKLLRWLEK [E8S]
A: 1.86

Q: Return reported folding stability dG; argument: SEEDKEREHWERLNRGFELRVLDTTFIAHHAEEVIKLLRWLEK [D16G]
A: 1.47

Q: Return reported folding stability dG; argument: SEEDKEREHWERLNRDFELRVLDTTFIAHHAEEVIKLLRYLEK [W40Y]
A: 1.13

Q: Return reported folding stability dG; argument: SEEDKESEHWERLNRDFELRVLDTTFIAHHAEEVIKLLRWLEK [R7S]
A: 1.3

Q: Return reported folding stability dG; argument: SEEDKEREHWERLNRDFELRVLDTTFIAGHAEEVIKLLRWLEK [H29G]
A: 1.17

Q: Return reported folding stability dG; argument: SEEDKEREHWERLNRDTELRVLDTTFIAHHAEEVIKLLRWLEK [F17T]
A: 0.782

Q: Return reported folding stability dG; argument: SEEDKEREHWEQLNRDFELRVLDTTFIAHHAEEVIKLLRWLEK [R12Q]
A: 1.26

Q: Return reported folding stability dG; argument: SEEDKEREHWERLNRDFELRVLDTTFIAHHAEEVIKGLRWLEK [L37G]
A: 0.136

Q: Return reported folding stability dG; argument: SEEDKEREHWERLVRDFELRVLDTTFIAHHAEEVIKLLRWLEK [N14V]
A: 2.21

Q: Return reported folding stability dG; argument: SEEDKEREHWERLLRDFELRVLDTTFIAHHAEEVIKLLRWLEK [N14L]
A: 2.39

Q: Return reported folding stability dG; argument: HEEDKEREHWERLNRDFELRVLDTTFIAHHAEEVIKLLRWLEK [S1H]
A: 1.35

Q: Return reported folding stability dG; argument: SEEDKEREHWARLNRDFELRVLDTTFIAHHAEEVIKLLRWLEK [E11A]
A: 2.07

Q: Return reported folding stability dG; argument: SEEDKEREHWERLNRDFELRVLDTTFIAHHAEEVIKLLRWQEK [L41Q]
A: 0.519

Q: Return reported folding stability dG; argument: SEEDKERGHWERLNRDFELRVLDTTFIAHHAEEVIKLLRWLEK [E8G]
A: 1.5

Q: Return reported folding stability dG; argument: SEEDKEREHWERLNRDFELRVLDTTFIAHHAEEVIQLLRWLEK [K36Q]
A: 1.23

Q: Return reported folding stability dG; argument: SEEDKEREHWERLNRDFELRVLDTTFIAHHAEEVINLLRWLEK [K36N]
A: 1.28

Q: Return reported folding stability dG; argument: SEEDTEREHWERLNRDFELRVLDTTFIAHHAEEVIKLLRWLEK [K5T]
A: 1.21

Q: Return reported folding stability dG; argument: SEEDKEREHWERLNRDFELRVLDQTFIAHHAEEVIKLLRWLEK [T24Q]
A: 1.02

Q: Return reported folding stability dG; argument: SEEDKEREHWERLNRDFELRVLDTTFIAHHAEEVIKLLRWLET [K43T]
A: 1.22

Q: Return reported folding stability dG; argument: SEEDKEREHWERLNRDFELRVLDTTRIAHHAEEVIKLLRWLEK [F26R]
A: 0.974

Q: Return reported folding stability dG; argument: SEEDKEREHWERLNRDYELRVLDTTFIAHHAEEVIKLLRWLEK [F17Y]
A: 1.31

Q: Return reported folding stability dG; argument: SEEDKEREHWERLNRDFELRVLDTTFIAHHAEEVIKLLHWLEK [R39H]
A: 1.17

Q: Return reported folding stability dG; argument: SAEDKEREHWERLNRDFELRVLDTTFIAHHAEEVIKLLRWLEK [E2A]
A: 1.48

Q: Return reported folding stability dG; argument: SEEDKEREHWERLNRDFEWRVLDTTFIAHHAEEVIKLLRWLEK [L19W]
A: 1.49

Q: Return reported folding stability dG; argument: SENDKEREHWERLNRDFELRVLDTTFIAHHAEEVIKLLRWLEK [E3N]
A: 1.51

Q: Return reported folding stability dG; argument: SEEDKETEHWERLNRDFELRVLDTTFIAHHAEEVIKLLRWLEK [R7T]
A: 1.26

Q: Return reported folding stability dG; argument: SEEDKEREHWERLNRDFELRVLDTTFNAHHAEEVIKLLRWLEK [I27N]
A: 0.776

Q: Return reported folding stability dG; argument: SEEDKEREHWERLNRDFELRVLDTTFIAHHAEESIKLLRWLEK [V34S]
A: 0.133

Q: Return reported folding stability dG; argument: SEEDKEREHWERLNRDFELRDLDTTFIAHHAEEVIKLLRWLEK [V21D]
A: 1.09

Q: Return reported folding stability dG; argument: SEEDKEREHWERLNRDFELRVLDTTFRAHHAEEVIKLLRWLEK [I27R]
A: 0.466

Q: Return reported folding stability dG; argument: SEEDKEREHWERLNRDFELRVDDTTFIAHHAEEVIKLLRWLEK [L22D]
A: 0.869

Q: Return reported folding stability dG; argument: SEEDKEREHWEWLNRDFELRVLDTTFIAHHAEEVIKLLRWLEK [R12W]
A: 2.2

Q: Return reported folding stability dG; argument: SEEDKEREHWEMLNRDFELRVLDTTFIAHHAEEVIKLLRWLEK [R12M]
A: 1.64

Q: Return reported folding stability dG; argument: SEEDFEREHWERLNRDFELRVLDTTFIAHHAEEVIKLLRWLEK [K5F]
A: 1.44

Q: Return reported folding stability dG; argument: SEEDKEREHWERVNRDFELRVLDTTFIAHHAEEVIKLLRWLEK [L13V]
A: 1.39

Q: Return reported folding stability dG; argument: SEDDKEREHWERLNRDFELRVLDTTFIAHHAEEVIKLLRWLEK [E3D]
A: 1.49

Q: Return reported folding stability dG; argument: SEEDKEREHWERLNRDFELRVLDTTFHAHHAEEVIKLLRWLEK [I27H]
A: 0.648

Q: Return reported folding stability dG; argument: SEEDKEREHWERLNRDFELRVLDTTFIAHHAEEVIKQLRWLEK [L37Q]
A: 0.133

Q: Return reported folding stability dG; argument: SEEDKEREHWERLNRDFELRVLDTTFIAHHAEEVIKLLRILEK [W40I]
A: 1.31

Q: Return reported folding stability dG; argument: SEEDKEREHWECLNRDFELRVLDTTFIAHHAEEVIKLLRWLEK [R12C]
A: 1.6

Q: Return reported folding stability dG; argument: SEEDKEREHWERWNRDFELRVLDTTFIAHHAEEVIKLLRWLEK [L13W]
A: 1.75

Q: Return reported folding stability dG; argument: SEEDKEREHWERLNRDFELRVLDTTFIAQHAEEVIKLLRWLEK [H29Q]
A: 1.23

Q: Return reported folding stability dG; argument: SEEDKEREHWERLNRDFELRVLDTTFIKHHAEEVIKLLRWLEK [A28K]
A: 1.29

Q: Return reported folding stability dG; argument: SEEDKEREHWERLNRDFELRVLDTTFQAHHAEEVIKLLRWLEK [I27Q]
A: 0.497

Q: Return reported folding stability dG; argument: SEEDKEREHWERLMRDFELRVLDTTFIAHHAEEVIKLLRWLEK [N14M]
A: 2.22

Q: Return reported folding stability dG; argument: SEEDKEREHWERLNRDFELRVVDTTFIAHHAEEVIKLLRWLEK [L22V]
A: 1.18

Q: Return reported folding stability dG; argument: SEEDKEREHWERLNRDFELRVLDTTFIAHHAEEYIKLLRWLEK [V34Y]
A: 1.06

Q: Return reported folding stability dG; argument: SEEDKEREHWERLNRDFELRVLDTTFIPHHAEEVIKLLRWLEK [A28P]
A: 0.699

Q: Return reported folding stability dG; argument: SSEDKEREHWERLNRDFELRVLDTTFIAHHAEEVIKLLRWLEK [E2S]
A: 1.31

Q: Return reported folding stability dG; argument: SEEDKEREHWERLNRDFELRVLDTTFVAHHAEEVIKLLRWLEK [I27V]
A: 0.996

Q: Return reported folding stability dG; argument: SEEDKEREHWERLNRDFELRLLDTTFIAHHAEEVIKLLRWLEK [V21L]
A: 1.85

Q: Return reported folding stability dG; argument: SEEDKEREHWRRLNRDFELRVLDTTFIAHHAEEVIKLLRWLEK [E11R]
A: 2.11

Q: Return reported folding stability dG; argument: SEEDKEREHWERLNRDFELRVLDTTFIAHHAEEVIKLLRWLEI [K43I]
A: 1.38

Q: Return reported folding stability dG; argument: SEEDKEREHWDRLNRDFELRVLDTTFIAHHAEEVIKLLRWLEK [E11D]
A: 1.55

Q: Return reported folding stability dG; argument: SEEDKEREHWERLNRDFELRVLDTTFIAYHAEEVIKLLRWLEK [H29Y]
A: 1.94

Q: Return reported folding stability dG; argument: SEEDKEREHWERLNRDFELRVLDTTFIAHHAEEVIKLLWWLEK [R39W]
A: 1.55

Q: Return reported folding stability dG; argument: SEEDKEREHWERLNRDFELRVLDTTFIAHHAEEVIKLLVWLEK [R39V]
A: 1.33

Q: Return reported folding stability dG; argument: SEEDKEREHWERLNRDFELRVLDTTFIAHHAEEVIKLLPWLEK [R39P]
A: 0.359

Q: Return reported folding stability dG; argument: SEEDKEREHWERLNGDFELRVLDTTFIAHHAEEVIKLLRWLEK [R15G]
A: 1.29

Q: Return reported folding stability dG; argument: SEEDKERPHWERLNRDFELRVLDTTFIAHHAEEVIKLLRWLEK [E8P]
A: 1.09

Q: Return reported folding stability dG; argument: SEEDKEREHWERLNRDFELRVLDSTFIAHHAEEVIKLLRWLEK [T24S]
A: 1.06

Q: Return reported folding stability dG; argument: SEEDKEVEHWERLNRDFELRVLDTTFIAHHAEEVIKLLRWLEK [R7V]
A: 1.28

Q: Return reported folding stability dG; argument: SEEDKEREHWERTNRDFELRVLDTTFIAHHAEEVIKLLRWLEK [L13T]
A: 1.52

Q: Return reported folding stability dG; argument: SEEDKEREHWERLNIDFELRVLDTTFIAHHAEEVIKLLRWLEK [R15I]
A: 2.41

Q: Return reported folding stability dG; argument: SEEDKEREHWERLNRDFELIVLDTTFIAHHAEEVIKLLRWLEK [R20I]
A: 1.99

Q: Return reported folding stability dG; argument: SEEDKEREHWERLNRVFELRVLDTTFIAHHAEEVIKLLRWLEK [D16V]
A: 2.04

Q: Return reported folding stability dG; argument: SEEDKEREHWERLNRDFELRVLDTTFIAHHAEEVIKLLRHLEK [W40H]
A: 0.768

Q: Return reported folding stability dG; argument: SEEDKEREKWERLNRDFELRVLDTTFIAHHAEEVIKLLRWLEK [H9K]
A: 1.34
